Target: T1, LASV Josiah (lineage IV) glycoprotein, full-length GP (Lassa virus, Josiah strain, UniProt P08669 2-491)
T1 sequence: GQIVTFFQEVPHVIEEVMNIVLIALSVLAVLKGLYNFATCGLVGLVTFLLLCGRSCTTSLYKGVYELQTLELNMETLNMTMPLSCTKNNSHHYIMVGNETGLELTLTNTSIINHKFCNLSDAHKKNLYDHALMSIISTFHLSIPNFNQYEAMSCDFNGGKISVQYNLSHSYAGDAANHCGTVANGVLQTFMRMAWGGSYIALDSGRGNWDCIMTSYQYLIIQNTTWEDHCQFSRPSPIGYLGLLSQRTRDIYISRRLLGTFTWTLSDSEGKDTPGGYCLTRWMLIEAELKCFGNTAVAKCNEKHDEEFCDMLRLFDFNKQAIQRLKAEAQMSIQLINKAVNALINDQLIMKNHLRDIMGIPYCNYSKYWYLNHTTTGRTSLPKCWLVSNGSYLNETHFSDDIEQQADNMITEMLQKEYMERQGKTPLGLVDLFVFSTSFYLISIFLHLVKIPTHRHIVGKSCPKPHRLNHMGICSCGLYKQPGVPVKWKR
Assay: cell-based or functional assay
Measured IC50 (neutralization) of individual entries

{"columns": ["binder", "IC50 (neutralization) / µg/mL"],
 "data": [
  ["37.2G (antibody, V domains shown) VH: EVQLVESGGGLVKPGGSRRLSCAASGFTFSRDTMTWVRQAPGKGLEWVASISSGSSDINYADSVKGRFTISRDNGKNSLYLHMNSLRADDTAIYYCARDPRSGISGRYGMDVWGQGTTVTVSS VL: DIVLTQSPGTLSLSPGERATLSCRASQSVNSIFLAWYQQKPGQAPRLLIYGASSRATGIPDRFSGSGSGTDFTLTISRLEPEDFAVYYCQQYHSSPKLTFGGGTKVEIKR", 0.405],
  ["9.8A (antibody, V domains shown) VH: EVQLVQSGGRLVQPGGSLRLSCVASGFTFSSHAMSWVRQAPGKGLEWVSGFSGSSGTTKYADSVKGRFTISRDNSKKTLYLQMNSLRAEDTAVYYCAKGFSPFRGVQFPYFDYWGQGTLVTVSS VL: DIVMTQSPSTLSASVGDRVTITCRASQSIDRWLAWYQQKPGKAPKLLIYQASSLERGVPSRFSGSGSGTEFTLTISSLQPDDFATYYCQQYNGYPLTFGGGTKVEIKR", 0.139],
  ["37.2D (antibody, V domains shown) VH: EVQLVQSGAEVKKPGASVKVSCKASGYTFTKYGISWVRQAPGQGLEWMGWISAFNGYTRYGQRFQGKVTMTTDTSTNTASLEVRTLTSNDTAVYYCARQYPDQYSSSGWPRLFAMDVWGQGTTVIVSP VL: ETTLTQSPATLSVSPGETATLSCRASQNVINNLAWYQQKPGQAPRLLIYGASTRATGIPARFSGSGSGTEFTLTISSMQSEDFAVYYCQQYNDWPRSFGQGTRLDIRR", 0.137]
]}
